Each item that follows carries a reported activity change.
Test: qHTS for Inhibitors of Inflammasome Signaling: IL-1-beta AlphaLISA Primary Screen; also: % is scaled to controls: 0 for no effect and ±100 for the full control effect
Conditions: THP-1 LPS/ATP IL-1B secretion, 16 h; at 57.5 µM, hits give low values
About 17,000 (4.7%) of roughly 360,000 compounds were called active. Another 5% or so got no clear call; they are omitted. This is one part of a sample in which actives are shown more often than they occur.
MEASURE_NAME: activity change (%)

[[record]]
compound = "O=C(Nc1ccc(F)cc1)Nc1nnc([C@H]2C[C@H](O)[C@@H](CO)O2)s1"
value_unit = "%"
test_result = -12.8

[[record]]
compound = "CN(C)Cc1ccc(F)cc1Sc1cc(Cl)ccc1Cl"
value_unit = "%"
test_result = 4.08

[[record]]
compound = "O=C(NNc1nc(N2CCCC2)nc(N2CCCC2)n1)c1ccccc1"
value_unit = "%"
test_result = -0.122

[[record]]
compound = "COc1ccccc1C(=O)NC(=S)Nc1ccc(N2CCOCC2)cc1"
value_unit = "%"
test_result = -16.4

[[record]]
compound = "CCCCCC1CCC(c2nnc(SCC(C)=O)o2)CC1 (stereo unspecified)"
value_unit = "%"
test_result = 0.218

[[record]]
compound = "Cc1cc(Nc2ccc(C)c(C)c2)n2ncnc2n1"
value_unit = "%"
test_result = 3.66

[[record]]
compound = "O=C(CCC(=O)OCc1ccc(Cl)cc1)Nc1ccccc1"
value_unit = "%"
test_result = 15

[[record]]
compound = "C[C@@H]1CN([C@@H](C)CO)C(=O)c2cc(Br)cnc2O[C@H]1CN(C)Cc1ccc(-c2ccccc2)cc1"
value_unit = "%"
test_result = -13.1

[[record]]
compound = "Cc1ccn(CC(=O)NC2CCCN(Cc3ccccc3F)C2)n1 (stereo unspecified)"
value_unit = "%"
test_result = -22.3

[[record]]
compound = "Clc1ccc(-n2nnnc2CN2CCCCC2)cc1Cl"
value_unit = "%"
test_result = 9.91

[[record]]
compound = "Cc1cccc(C)c1NC(=O)C(c1ccc(C(F)(F)F)cc1)n1c(=O)c(-c2ccco2)nc2ccccc21 (stereo unspecified)"
value_unit = "%"
test_result = -1.25


====

Assay: qHTS for Inhibitors of Inflammasome Signaling: IL-1-beta AlphaLISA Primary Screen
Details: THP-1 LPS/ATP IL-1B secretion, 16 h; at 57.5 µM, hits give low values
In all, about 360,000 compounds went through this assay and about 17,000 (4.7%) were called active. About 5% were inconclusive and are not listed. This is one part of a sample in which actives are shown more often than they occur.
Each item that follows carries a reported activity change.
MEASURE_NAME: activity change (%)

[[record]]
compound = "O=C(C[n+]1ccc2c(c1)nnn2-c1ccccc1)c1ccc(Cl)cc1"
measure_name = "activity change"
value_unit = "%"
test_result = -56.5

[[record]]
compound = "CCc1nc2ccc(C(=O)Nc3cccc(OC)c3)cn2c1N(CCC(C)C)CCN(C)C"
measure_name = "activity change"
value_unit = "%"
test_result = 30.7

[[record]]
compound = "CCc1nc2ccc(C(=O)NCCNC(C)=O)cn2c1N(CC)Cc1cccc(Br)c1"
measure_name = "activity change"
value_unit = "%"
test_result = 27.3

[[record]]
compound = "COc1cc(C(=O)OC(C)C(=O)NCC2CCCCC2)cc(NC(=O)c2ccco2)c1OC (stereo unspecified)"
measure_name = "activity change"
value_unit = "%"
test_result = -6.5

[[record]]
compound = "CC1(C(=O)NCc2ccccc2)CN(S(C)(=O)=O)CC(=O)N1CC(F)(F)F (stereo unspecified)"
measure_name = "activity change"
value_unit = "%"
test_result = 30.7

[[record]]
compound = "Nc1cccc2c1C(=O)N(Cc1nnc(-c3ccccc3Br)o1)C2=O"
measure_name = "activity change"
value_unit = "%"
test_result = -5.13

[[record]]
compound = "CC1(Cc2ccccc2C#N)C(=O)Nc2ccc(-c3ccc4[nH]ccc4c3)cc21 (stereo unspecified)"
measure_name = "activity change"
value_unit = "%"
test_result = 90.5

[[record]]
compound = "CN(c1ccccc1)S(=O)(=O)c1cccc(NC(=O)Cc2c(F)cccc2Cl)c1"
measure_name = "activity change"
value_unit = "%"
test_result = 0

[[record]]
compound = "CSCCC(NC(=O)C1CCC(C)CC1)C(=O)NCc1ccco1 (stereo unspecified)"
measure_name = "activity change"
value_unit = "%"
test_result = -25.5

[[record]]
compound = "CCc1ccc(-c2nn(-c3ccccc3C)cc2C(=O)N2CCN(C3CCS(=O)(=O)C3)CC2)cc1 (stereo unspecified)"
measure_name = "activity change"
value_unit = "%"
test_result = 16.7

[[record]]
compound = "Cc1cccn2c(=O)c(/C=C(\\C#N)C(N)=O)c(N3CCCCCC3)nc12"
measure_name = "activity change"
value_unit = "%"
test_result = -18.7

[[record]]
compound = "CCOC(=O)C1=C(CSc2nnnn2C)N(C)C(=O)NC1c1ccccc1 (stereo unspecified)"
measure_name = "activity change"
value_unit = "%"
test_result = 25.6

[[record]]
compound = "CCc1nc2ccc(C(=O)NCc3ccc(OC)cc3)cn2c1N(CC)Cc1cccc(Br)c1"
measure_name = "activity change"
value_unit = "%"
test_result = -70.8

[[record]]
compound = "CCc1ccc(-c2nn(-c3ccccc3)cc2CSC(=N)N)cc1"
measure_name = "activity change"
value_unit = "%"
test_result = -102

[[record]]
compound = "Cc1cccc2[nH]c(CN(C)C(=O)C3CCC(=O)N(CCc4ccccc4)C3)nc12 (stereo unspecified)"
measure_name = "activity change"
value_unit = "%"
test_result = 0

[[record]]
compound = "CCCNC(=O)c1cc(C2CCCCN2S(=O)(=O)c2cn(C)cn2)on1 (stereo unspecified)"
measure_name = "activity change"
value_unit = "%"
test_result = 1.68

[[record]]
compound = "CCN(CC(=O)NC1CCS(=O)(=O)C1)c1nc(-c2cccnc2)nc2ccccc12 (stereo unspecified)"
measure_name = "activity change"
value_unit = "%"
test_result = -2.86

[[record]]
compound = "CC(C)NC(=O)C1(C)CCCCN1Cc1cccc(C(F)(F)F)c1 (stereo unspecified)"
measure_name = "activity change"
value_unit = "%"
test_result = 12.4

[[record]]
compound = "O=C(Cn1cc(-c2nnnn2-c2ccc(Cl)cc2)c(=O)c2ccccc21)c1ccccc1"
measure_name = "activity change"
value_unit = "%"
test_result = 33.2

[[record]]
compound = "O=C(CCNS(=O)(=O)c1ccccc1)NCCCc1ccccc1"
measure_name = "activity change"
value_unit = "%"
test_result = 14.3

[[record]]
compound = "CCNC(=O)C1CCCN(C(=O)c2cc(F)ccc2C)CC1 (stereo unspecified)"
measure_name = "activity change"
value_unit = "%"
test_result = 26.6


====

Assay: qHTS for Inhibitors of Inflammasome Signaling: IL-1-beta AlphaLISA Primary Screen
Details: THP-1 LPS/ATP IL-1B secretion, 16 h; at 57.5 µM, hits give low values
In all, about 360,000 compounds went through this assay and about 17,000 (4.7%) were called active. Another 5% or so got no clear call; they are omitted. The full list was thinned out, with actives kept by preference.
Each item that follows carries a reported activity change.
MEASURE_NAME: activity change (%)

[[record]]
molecule = "COc1cccc(-n2nc(C(=O)N3CCN(Cc4ccccc4)CC3)c3ccccc3c2=O)c1"
test_result = -16.4

[[record]]
molecule = "O=C(c1ccncc1)N1CCN(c2ccc3ccccc3n2)CC1"
test_result = 5.08

[[record]]
molecule = "Cc1c(NC(=O)c2coc(=O)c(Br)c2)c(=O)n(-c2ccccc2)n1C"
test_result = -72.5

[[record]]
molecule = "Cc1cc(Cl)ccc1C(=O)C1CCCN(C(=O)c2ccc3c(c2)OCO3)C1 (stereo unspecified)"
test_result = -15.9

[[record]]
molecule = "c1ccc(-c2cc(N3CCCCC3)c3ccccc3n2)cc1"
test_result = -26.2

[[record]]
molecule = "Cc1ccc([C@@H]2CC(=O)[C@@H]3CN(S(=O)(=O)c4ccc(C)cc4)[C@H](c4ccccc4F)C[C@@H]3N2S(=O)(=O)c2ccc(Cl)cc2)cc1"
test_result = 0

[[record]]
molecule = "COc1cccc(-n2cc3c(c2-c2ccccc2)c(=O)n(C)c(=O)n3C)c1"
test_result = 18.5

[[record]]
molecule = "O=c1nc(NO)ccn1C1CCCO1 (stereo unspecified)"
test_result = 13.7

[[record]]
molecule = "COc1ccc(C(=O)N2CCCN(C)CC2)c(OC)c1"
test_result = 33.4

[[record]]
molecule = "CC(Nc1nc(N2CCN(CCO)CC2)nc2ccccc12)c1ccccc1 (stereo unspecified)"
test_result = -90.7

[[record]]
molecule = "COc1cccc(NC(=O)N(C)C[C@@H]2Oc3ncc(Br)cc3C(=O)N([C@@H](C)CO)C[C@H]2C)c1"
test_result = 2.84

[[record]]
molecule = "Cc1ccc(CN2CC(C(=O)N3CCN(S(=O)(=O)c4ccccc4)CC3)CC2=O)cc1 (stereo unspecified)"
test_result = -19.1

[[record]]
molecule = "CC(=O)OC[C@@H]1CN(Cc2ccccc2)C[C@H](n2cnc3c(NCc4ccco4)ncnc32)O1"
test_result = 16.4

[[record]]
molecule = "O=C(OCc1ccccc1)N1CCC2CC1c1cc(N3CCN(S(=O)(=O)c4cc(Cl)cc(Cl)c4)CC3)ccc12 (stereo unspecified)"
test_result = 21.9

[[record]]
molecule = "c1cnc(N2CCN(c3ccc4ccccc4n3)CC2)nc1"
test_result = -50.1

[[record]]
molecule = "CCCCn1c(CN2CCN(CCO)CC2)nc2ccccc21"
test_result = 44.1

[[record]]
molecule = "COc1cc(C(=O)N2CCN(C)CC2)cc(OC)c1OC"
test_result = 42.7

[[record]]
molecule = "Cn1c(=O)[nH]c(=O)c2c1nc(N1CCN(CCO)CC1)n2CCSc1nc2ccccc2s1"
test_result = 10.2

[[record]]
molecule = "O=C(COC(=O)c1cncc(Br)c1)Nc1ccc(S(=O)(=O)N2CCOCC2)cc1"
test_result = -5.39

[[record]]
molecule = "COc1cccc(-n2cc(C(=O)O)c3ccccc3c2=O)c1"
test_result = -59.6

[[record]]
molecule = "COc1ccc(CN2C(=O)C(CC(=O)NCCN3CCOCC3)CC(C(=O)N(C(C)C)C(C)C)=C2C)cc1 (stereo unspecified)"
test_result = 15.9


Data provenance: PubChem BioAssay AID743279
